system: Escherichia coli; assay: minimum inhibitory concentration (MIC); conditions: isolate (source animal id): 186
measure: minimum inhibitory concentration (µg/mL)
Give the value in µg/mL but do not write µg/mL after it.

molecule | result-units | minimum inhibitory concentration
CC1(C)S[C@@H]2[C@H](NC(=O)[C@H](N)c3ccccc3)C(=O)N2[C@H]1C(=O)O [Ampicillin] | µg/mL | 4
CO/N=C(\C(=O)N[C@@H]1C(=O)N2C(C(=O)O)=C(CSC(=O)c3ccco3)CS[C@H]12)c1csc(N)n1 [Ceftiofur] | µg/mL | 0.5

Shifting focus to the molecule that follows.
Exercise: What does the data say about its minimum inhibitory concentration? Entry: CS(=O)(=O)c1ccc([C@@H](O)[C@@H](CF)NC(=O)C(Cl)Cl)cc1 [Florfenicol]
Solution: 4
